System: MvaT
Assay: PBM 8-mer E-score (mean of HK and ME arrays) (E-score (dimensionless, -0.5 to 0.5)); higher = stronger relative binding preference
Whole data set: some 33,000 sequences, median “E-score (dimensionless, -0.5 to 0.5)” near -0.058, cut for the highest 2% near 0.35. Shown is part of a subset that was picked to be rich in the highest values.
Here the recorded PBM 8-mer E-score is given for each entry.
ATTRIBUTE MEASURED: PBM 8-mer E-score

INSERT INTO assay_data (residues, study_target, attribute_measured, assay_value) VALUES
  ('ATAAATGA', 'MvaT', 'PBM 8-mer E-score', 0.316),
  ('TCATATAA', 'MvaT', 'PBM 8-mer E-score', 0.379),
  ('ATACACTC', 'MvaT', 'PBM 8-mer E-score', 0.143),
  ('GTAAATGA', 'MvaT', 'PBM 8-mer E-score', 0.222),
  ('ATAATGAT', 'MvaT', 'PBM 8-mer E-score', 0.275),
  ('ATAAATAA', 'MvaT', 'PBM 8-mer E-score', 0.442),
  ('GAAGTTCA', 'MvaT', 'PBM 8-mer E-score', 0.16),
  ('AGGGATGC', 'MvaT', 'PBM 8-mer E-score', -0.182),
  ('CTAGTTAA', 'MvaT', 'PBM 8-mer E-score', 0.36),
  ('ATTTAAGC', 'MvaT', 'PBM 8-mer E-score', 0.309),
  ('AAGATCGC', 'MvaT', 'PBM 8-mer E-score', -0.0523),
  ('TTAATGAA', 'MvaT', 'PBM 8-mer E-score', 0.393),
  ('GACGCTGC', 'MvaT', 'PBM 8-mer E-score', -0.183),
  ('AGCGCCTA', 'MvaT', 'PBM 8-mer E-score', -0.16),
  ('TAGTATAA', 'MvaT', 'PBM 8-mer E-score', 0.384),
  ('AAAGTTCA', 'MvaT', 'PBM 8-mer E-score', 0.322),
  ('ATTACCGA', 'MvaT', 'PBM 8-mer E-score', 0.0931),
  ('CCGCAAGA', 'MvaT', 'PBM 8-mer E-score', -0.078),
  ('ATAAACAT', 'MvaT', 'PBM 8-mer E-score', 0.342),
  ('AGAATAAT', 'MvaT', 'PBM 8-mer E-score', 0.411),
  ('ATAATAAA', 'MvaT', 'PBM 8-mer E-score', 0.451),
  ('ATGTATAC', 'MvaT', 'PBM 8-mer E-score', 0.332);

###

Here the recorded PBM 8-mer E-score is given for each entry.
System: MvaT
Assay: PBM 8-mer E-score (mean of HK and ME arrays) (E-score (dimensionless, -0.5 to 0.5)); higher = stronger relative binding preference
In all, about 33,000 sequences were measured (“E-score (dimensionless, -0.5 to 0.5)”: median about -0.058, highest 2% from about 0.35 on). Shown is part of a subset that was picked to be rich in the highest values.
ATTRIBUTE MEASURED: PBM 8-mer E-score

INSERT INTO assay_data (residues, attribute_measured, assay_value) VALUES
  ('ATACAATA', 'PBM 8-mer E-score', 0.372),
  ('TAACATTA', 'PBM 8-mer E-score', 0.374),
  ('ATACAATC', 'PBM 8-mer E-score', 0.18),
  ('CTAAATGA', 'PBM 8-mer E-score', 0.126),
  ('ACAGATAC', 'PBM 8-mer E-score', 0.102);
